- system.tested: CaV2.2 (Homo sapiens, UniProt Q00975)
- Construct: expressed in transfected cells; host or cells: HEK293
- Sequence (Q00975 whole entry): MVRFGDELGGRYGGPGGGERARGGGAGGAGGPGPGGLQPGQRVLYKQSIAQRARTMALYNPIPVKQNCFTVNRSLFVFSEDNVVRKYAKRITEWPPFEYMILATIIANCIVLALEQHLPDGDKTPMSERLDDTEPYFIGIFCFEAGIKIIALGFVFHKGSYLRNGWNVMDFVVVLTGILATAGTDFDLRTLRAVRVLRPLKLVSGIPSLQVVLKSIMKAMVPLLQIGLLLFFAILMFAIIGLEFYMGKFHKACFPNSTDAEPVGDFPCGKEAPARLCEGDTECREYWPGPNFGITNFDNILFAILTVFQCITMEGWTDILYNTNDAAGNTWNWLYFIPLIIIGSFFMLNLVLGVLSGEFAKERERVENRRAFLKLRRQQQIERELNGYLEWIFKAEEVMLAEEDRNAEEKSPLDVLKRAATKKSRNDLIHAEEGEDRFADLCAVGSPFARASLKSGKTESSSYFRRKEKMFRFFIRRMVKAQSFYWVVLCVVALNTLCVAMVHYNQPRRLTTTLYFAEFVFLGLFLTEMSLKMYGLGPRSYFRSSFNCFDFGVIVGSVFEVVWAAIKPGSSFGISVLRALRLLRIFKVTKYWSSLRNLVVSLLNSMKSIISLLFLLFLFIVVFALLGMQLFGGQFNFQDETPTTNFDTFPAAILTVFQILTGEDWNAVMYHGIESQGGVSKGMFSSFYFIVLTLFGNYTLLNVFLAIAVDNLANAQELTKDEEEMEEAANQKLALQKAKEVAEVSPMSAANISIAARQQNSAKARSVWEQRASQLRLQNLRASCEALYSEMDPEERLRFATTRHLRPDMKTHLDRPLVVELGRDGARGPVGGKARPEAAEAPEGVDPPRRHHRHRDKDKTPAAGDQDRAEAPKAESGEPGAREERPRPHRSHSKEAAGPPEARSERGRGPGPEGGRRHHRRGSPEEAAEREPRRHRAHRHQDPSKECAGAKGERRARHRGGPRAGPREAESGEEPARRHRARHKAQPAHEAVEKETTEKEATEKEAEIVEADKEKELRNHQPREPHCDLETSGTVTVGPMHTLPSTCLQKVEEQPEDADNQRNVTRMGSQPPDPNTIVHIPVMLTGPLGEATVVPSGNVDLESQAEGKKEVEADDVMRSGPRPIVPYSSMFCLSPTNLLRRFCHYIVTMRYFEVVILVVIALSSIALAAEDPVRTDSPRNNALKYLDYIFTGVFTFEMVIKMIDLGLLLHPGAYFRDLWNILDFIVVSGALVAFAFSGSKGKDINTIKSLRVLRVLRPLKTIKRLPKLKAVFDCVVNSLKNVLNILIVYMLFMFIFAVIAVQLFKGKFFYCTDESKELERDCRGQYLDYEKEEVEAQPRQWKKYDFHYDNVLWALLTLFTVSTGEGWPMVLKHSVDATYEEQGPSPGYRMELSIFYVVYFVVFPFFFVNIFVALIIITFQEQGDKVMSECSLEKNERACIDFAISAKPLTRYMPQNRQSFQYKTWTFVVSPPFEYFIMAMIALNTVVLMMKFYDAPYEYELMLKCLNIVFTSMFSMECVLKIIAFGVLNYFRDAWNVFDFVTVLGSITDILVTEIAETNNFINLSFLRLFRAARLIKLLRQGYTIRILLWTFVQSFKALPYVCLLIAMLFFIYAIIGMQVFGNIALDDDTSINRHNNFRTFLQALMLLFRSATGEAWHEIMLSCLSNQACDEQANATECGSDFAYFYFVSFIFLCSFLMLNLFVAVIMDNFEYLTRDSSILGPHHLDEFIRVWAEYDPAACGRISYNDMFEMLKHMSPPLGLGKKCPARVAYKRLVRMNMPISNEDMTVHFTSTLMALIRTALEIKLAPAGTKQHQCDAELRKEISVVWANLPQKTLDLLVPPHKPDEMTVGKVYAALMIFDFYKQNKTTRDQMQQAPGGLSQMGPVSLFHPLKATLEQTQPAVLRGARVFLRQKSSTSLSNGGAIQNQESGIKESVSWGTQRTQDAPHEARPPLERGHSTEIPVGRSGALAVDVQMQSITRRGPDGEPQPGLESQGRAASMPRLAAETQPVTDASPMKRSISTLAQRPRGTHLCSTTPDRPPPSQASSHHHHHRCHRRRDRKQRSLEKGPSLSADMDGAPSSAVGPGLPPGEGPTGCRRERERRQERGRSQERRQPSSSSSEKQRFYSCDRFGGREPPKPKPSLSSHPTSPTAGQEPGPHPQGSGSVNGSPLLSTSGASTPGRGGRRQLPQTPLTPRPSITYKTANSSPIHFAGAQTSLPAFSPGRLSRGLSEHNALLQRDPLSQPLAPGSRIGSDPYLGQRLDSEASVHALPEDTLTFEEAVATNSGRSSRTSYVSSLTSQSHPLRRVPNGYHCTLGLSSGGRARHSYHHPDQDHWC
- Sequence (P54284 whole entry partner): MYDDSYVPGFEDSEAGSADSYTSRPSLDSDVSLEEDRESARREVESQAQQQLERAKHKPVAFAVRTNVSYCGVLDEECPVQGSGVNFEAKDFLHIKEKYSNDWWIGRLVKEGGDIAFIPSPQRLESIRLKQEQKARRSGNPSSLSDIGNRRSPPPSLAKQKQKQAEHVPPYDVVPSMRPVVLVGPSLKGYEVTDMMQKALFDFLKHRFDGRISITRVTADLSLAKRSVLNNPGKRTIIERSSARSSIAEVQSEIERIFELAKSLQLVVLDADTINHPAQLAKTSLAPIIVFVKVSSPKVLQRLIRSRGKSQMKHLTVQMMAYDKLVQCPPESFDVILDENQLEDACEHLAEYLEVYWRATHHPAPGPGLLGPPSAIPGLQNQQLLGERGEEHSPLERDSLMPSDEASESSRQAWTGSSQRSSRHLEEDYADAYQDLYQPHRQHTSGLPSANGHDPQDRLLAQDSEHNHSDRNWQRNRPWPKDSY
- Sequence (P54289 25-946 partner limits assumed): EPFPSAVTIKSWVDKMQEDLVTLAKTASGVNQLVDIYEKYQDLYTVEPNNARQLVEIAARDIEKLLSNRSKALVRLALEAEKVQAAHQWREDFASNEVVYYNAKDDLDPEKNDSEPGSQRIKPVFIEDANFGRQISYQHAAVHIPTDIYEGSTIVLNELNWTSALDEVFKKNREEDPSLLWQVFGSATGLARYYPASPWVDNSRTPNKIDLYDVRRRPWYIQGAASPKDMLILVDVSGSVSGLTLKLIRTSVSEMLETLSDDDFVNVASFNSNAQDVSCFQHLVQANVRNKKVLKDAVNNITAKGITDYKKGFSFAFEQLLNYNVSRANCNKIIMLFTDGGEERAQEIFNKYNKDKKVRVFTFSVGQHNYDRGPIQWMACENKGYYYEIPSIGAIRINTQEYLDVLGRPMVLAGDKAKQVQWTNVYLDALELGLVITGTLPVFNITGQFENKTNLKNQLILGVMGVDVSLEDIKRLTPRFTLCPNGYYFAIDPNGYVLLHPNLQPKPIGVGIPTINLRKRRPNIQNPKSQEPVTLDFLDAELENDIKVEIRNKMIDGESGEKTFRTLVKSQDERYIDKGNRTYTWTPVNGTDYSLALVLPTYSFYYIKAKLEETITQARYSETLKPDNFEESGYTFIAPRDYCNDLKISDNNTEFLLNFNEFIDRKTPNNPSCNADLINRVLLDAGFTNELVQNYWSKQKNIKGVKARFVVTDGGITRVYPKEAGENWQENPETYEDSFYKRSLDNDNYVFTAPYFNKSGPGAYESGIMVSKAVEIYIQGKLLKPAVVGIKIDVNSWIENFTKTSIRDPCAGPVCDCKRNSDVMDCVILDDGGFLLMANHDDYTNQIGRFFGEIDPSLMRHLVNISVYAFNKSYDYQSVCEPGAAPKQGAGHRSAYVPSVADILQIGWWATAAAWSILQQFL
- Sequence (P54289 947-1103 partner limits assumed): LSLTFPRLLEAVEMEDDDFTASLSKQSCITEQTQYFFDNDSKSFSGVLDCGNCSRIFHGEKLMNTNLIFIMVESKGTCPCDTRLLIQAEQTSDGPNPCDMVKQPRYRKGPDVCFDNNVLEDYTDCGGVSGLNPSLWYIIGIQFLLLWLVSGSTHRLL
- experimental.protocol: VIPR optical membrane potential assay with electrical stimulation
- Type: cell-based
- cond: Table 3, biological assay data; read-out: IC50
readout.name: IC50

// solved cases for IC50 follow
# molecule, readout.name, result
rows = [
    ("CCNC(=O)c1cc2cc(S(=O)(=O)N3CCC(C)CC3)ccc2o1", "IC50", "< 5 µM"),
    ("CC1CCN(S(=O)(=O)c2ccc3oc(C(=O)N4CCCC4)cc3c2)CC1", "IC50", "5 to 20 µM"),
    ("CCN(CC)S(=O)(=O)c1ccc2oc(C(=O)N3CCCCC3)c(C)c2c1", "IC50", "< 20 µM"),
]

Problem: Please list IC50 recorded for the molecule Cc1c(C(=O)N2CCN(C)CC2)oc2ccc(S(=O)(=O)N3CCCCCC3)cc12
Result: 5 to 20 µM

Problem: Let me know recorded IC50 for COc1ccc(NS(=O)(=O)c2ccc3oc(C(=O)NC4CC4)c(C)c3c2)cc1 , thanks.
Result: 5 to 20 µM

Problem: Query IC50 for CC1CC(C)CN(S(=O)(=O)c2ccc3oc(C(=O)NCCCc4ccccc4)cc3c2)C1 (stereo not drawn)
Result: < 5 µM

Problem: Retrieve IC50 measured for CC1CC(C)CN(S(=O)(=O)c2ccc3[nH]c(C(=O)NC4CCCC4)cc3c2)C1 (stereo not drawn) and print it.
Result: < 5 µM

Problem: State its IC50 for this molecule: CC1CC(C)CN(C(=O)c2cc3cc(S(=O)(=O)N4CCCCCC4)ccc3o2)C1 (stereo not drawn)
Result: < 5 µM

Problem: Supply measured IC50 of Cc1c(C(=O)N2CCOCC2)oc2ccc(S(=O)(=O)N3CCCCC3)cc12 in your reply.
Result: < 20 µM

Problem: Using known records, supply IC50 for O=C(NC1CCCCC1)c1cc2cc(S(=O)(=O)N3CCCCCC3)ccc2[nH]1
Result: < 20 µM

Problem: Input CCCN(CC1CC1)C(=O)c1cc2cc(S(=O)(=O)N3CC(C)CC(C)C3)ccc2n1C (stereo not drawn) , output reported IC50.
Result: < 5 µM

Problem: Tell me IC50 reported for CCN(CC)S(=O)(=O)c1ccc2oc(C(=O)NC)c(C)c2c1
Result: < 20 µM
